Tested on: MDA-MB-231
measurement.description: Antiproliferative activity against human MDA-MB-231 cells assessed as reduction in cell viability incubated for 24 hrs by MTT assay
Assay type: functional, cell-based
reported.conditions: MDA-MB-231, 24 h
measurement.kind: IC50 (µM)
Please give a number only; it is taken to be in µM.

O=C(/C=C/c1ccc(F)cc1)c1cccc(NC(=O)c2ccc(Cl)cc2)c1 = 43

# context switch: different molecule, same IC50
Prompt: Identify measured IC50 corresponding to Cc1ccc(C(=O)Nc2cccc(C(=O)/C=C/c3ccc(F)cc3)c2)cc1
Completion: 7.93

----------
IC50 tested on Hepatocyte growth factor receptor (Homo sapiens): recorded values
Sequence (P08581 whole entry): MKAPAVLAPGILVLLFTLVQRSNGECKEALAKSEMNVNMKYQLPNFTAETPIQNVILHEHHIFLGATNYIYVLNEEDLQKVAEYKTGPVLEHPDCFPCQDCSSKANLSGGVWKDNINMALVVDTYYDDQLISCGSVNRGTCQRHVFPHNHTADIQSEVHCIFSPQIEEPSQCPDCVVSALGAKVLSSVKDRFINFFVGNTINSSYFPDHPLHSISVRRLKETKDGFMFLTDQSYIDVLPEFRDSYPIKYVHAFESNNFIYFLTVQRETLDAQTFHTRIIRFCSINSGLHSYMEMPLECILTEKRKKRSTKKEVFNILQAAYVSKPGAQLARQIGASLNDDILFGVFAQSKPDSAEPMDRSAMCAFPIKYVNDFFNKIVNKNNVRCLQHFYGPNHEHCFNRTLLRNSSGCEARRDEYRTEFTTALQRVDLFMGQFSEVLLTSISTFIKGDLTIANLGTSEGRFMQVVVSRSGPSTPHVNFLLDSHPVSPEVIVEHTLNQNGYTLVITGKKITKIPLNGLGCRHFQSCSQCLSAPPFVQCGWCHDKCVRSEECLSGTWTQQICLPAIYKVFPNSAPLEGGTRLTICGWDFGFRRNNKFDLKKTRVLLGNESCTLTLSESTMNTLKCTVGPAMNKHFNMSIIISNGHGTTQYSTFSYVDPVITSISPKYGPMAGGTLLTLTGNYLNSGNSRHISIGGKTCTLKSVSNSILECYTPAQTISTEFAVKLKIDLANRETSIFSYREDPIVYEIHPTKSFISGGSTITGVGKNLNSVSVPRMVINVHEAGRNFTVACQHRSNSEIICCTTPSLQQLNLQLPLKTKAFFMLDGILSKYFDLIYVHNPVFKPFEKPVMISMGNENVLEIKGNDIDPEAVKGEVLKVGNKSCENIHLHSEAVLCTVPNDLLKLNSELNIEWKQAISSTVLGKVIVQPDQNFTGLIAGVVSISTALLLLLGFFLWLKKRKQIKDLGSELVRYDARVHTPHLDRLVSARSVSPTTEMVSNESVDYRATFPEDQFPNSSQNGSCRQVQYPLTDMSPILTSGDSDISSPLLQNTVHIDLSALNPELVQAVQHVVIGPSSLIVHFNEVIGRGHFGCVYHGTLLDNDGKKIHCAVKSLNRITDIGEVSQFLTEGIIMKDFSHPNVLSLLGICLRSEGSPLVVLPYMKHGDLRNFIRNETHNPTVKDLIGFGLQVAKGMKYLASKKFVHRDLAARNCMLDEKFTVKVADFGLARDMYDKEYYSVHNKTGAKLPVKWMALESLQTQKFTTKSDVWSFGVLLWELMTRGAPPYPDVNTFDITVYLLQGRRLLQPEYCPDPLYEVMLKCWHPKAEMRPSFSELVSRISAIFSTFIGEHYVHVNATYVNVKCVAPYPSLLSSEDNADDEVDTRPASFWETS
Please give a number only; it is taken to be in nM.

Cc1c(C(=O)Nc2ccc(Oc3ccnc4cc(OCC(C)(C)O)ccc34)c(F)c2)c(=O)n(-c2ccccc2)n1C [NINGETINIB] = 33.4
O=C(/C=C/c1ccc(F)cc1)c1cccc(NC(=O)c2ccc(Cl)cc2)c1 = 7900

Prompt: Identify measured IC50 corresponding to Cc1ccc(C(=O)Nc2cccc(C(=O)/C=C/c3ccc(F)cc3)c2)cc1
Completion: 6610

Prompt: Identify measured IC50 corresponding to Fc1ccc(Cl)c(Sc2n[nH]c3ncc(-c4cnn(C5CCNCC5)c4)cc23)c1Cl
Completion: 14.6

Prompt: Identify measured IC50 corresponding to N#CC1=C(N)OC2=C(c3sc(N)c(C#N)c3CC2)C1c1ccccc1 (stereo not drawn)
Completion: 8.32

Prompt: Identify measured IC50 corresponding to C[C@@H](Oc1cc(C(=O)Nc2ccc(=O)n(C)c2)nnc1N)c1c(Cl)ccc(F)c1Cl
Completion: 40

Prompt: Identify measured IC50 corresponding to Nc1nccc(Oc2ccc(NC(=O)c3ccnn(-c4ccc(F)cc4)c3=O)cc2F)c1C#CCC1CCNCC1
Completion: 10

Prompt: Identify measured IC50 corresponding to CNC(=O)c1ccccc1Nc1nc(Nc2ccc3c(c2)[C@@H](C)CNCC3)ncc1Cl
Completion: 6.4

----------
Each record here notes measured IC50.
Tested on: A549
measurement.description: Antiproliferative activity against human A549 cells assessed as reduction in cell viability incubated for 24 hrs by MTT assay
Assay type: functional, cell-based
reported.conditions: A549, 24 h
Please give a number only; it is taken to be in µM.

The cases that follow already have their IC50 on record.
O=C(/C=C/c1ccc(F)cc1)c1cccc(NC(=O)c2ccc(Cl)cc2)c1 = 43.8
Cc1ccc(C(=O)Nc2cccc(C(=O)/C=C/c3ccc(F)cc3)c2)cc1 = 37

# context switch: different compound, same IC50
Prompt: Identify measured IC50 corresponding to C/C=C(/C=O)[C@@H](CC=O)CC(=O)OCCc1ccc(O)cc1 [(-)-OLEOCANTHAL]
Completion: 10
